Test system: SW-620
measurement_description: NCI tumour cell line growth inhibition, 48 h
Active and inactive are the calls of the source. No stated cut-off is given here; in the data, active = GI50 up to about 1.1 µM and inactive = higher.
measured_property: GI50

Reference set, count: 4
| compound | GI50 |
| --- | --- |
| Clc1cccc(Cl)c1C1SCc2nc3ccccc3n21 (stereo not given) | 46.7 µM (inactive) |
| CCC1c2[nH]c3ccccc3c2C[C@H]2C(=O)NC(C)C(=O)N12 (stereo not given in full) | > 100 µM (inactive) |
| Cn1c2ccc3cc2c(=S)c2cc(ccc21)OCCOCCOCCOCCOCCO3 | > 10 µM (inactive) |
| Cc1cc(NS(=O)(=O)c2ccc(NC(=O)c3ccc4nc5ccccc5c(Nc5ccc(S(=O)(=O)Nc6cc(C)on6)cc5)c4c3)cc2)no1 | > 50 µM (inactive) |

Exam item: Return the recorded GI50 value; entry: "O=C(/C=C/c1cccc2ccccc12)c1ccccc1"
Marked response: 4 µM (inactive)

----------
Tested on: SR
measurement_description: NCI tumour cell line growth inhibition, 48 h
Active and inactive are the calls of the source. Cut-off read from the data, not from the text of the source: active = GI50 up to about 1.1 µM and inactive = higher.
Item-by-item account of GI50

| compound | system_under_test | GI50 |
| --- | --- | --- |
| C/C1=C/C2OC(=O)C3(C)C2C(CC2(C)OC1=CC2=O)OC3(O)C(C)C (centres undefined) | SR | 22.6 µM (inactive) |
| C=C(C)CC(C)(c1cc2ccccc2n1C)N1CCOCC1 (centres undefined) | SR | 69 µM (inactive) |
| CCN(CC)CC1CCCCN1CC(=O)N1c2cc(Cl)ccc2NC(=O)CC1C (centres undefined) | SR | > 100 µM (inactive) |
| C/C=C\C1OC1(C)c1cc(=O)c2c(C)cc3c(c2o1)C(=O)c1c(O)c(C2CC(C)(N(C)C)C(OC(C)=O)C(C)O2)cc(C2CC(N(C)C)C(O)C(C)O2)c1C3=O (centres undefined) | SR | < 0.00375 µM (active) |
| COc1ccc2nc3c([N+](=O)[O-])ccc(NCCCN(C)C)c3c(N)c2c1 | SR | 0.721 µM (active) |
| Cn1c(=O)c2c(-c3ccccc3)onc2n(C)c1=O | SR | 36.6 µM (inactive) |

Exam item: Return the recorded GI50 value; entry: COc1cc(C2c3cc4c(cc3[C@@H](Nc3ccccc3)C3COC[C@H]23)OCO4)cc(OC)c1O (some centres undefined)
Marked response: 0.465 µM (active)

Exam item: Return the recorded GI50 value; entry: "CCN(CC)CCOC(=O)CCN1CC2CCC(CC2)C1"
Marked response: > 100 µM (inactive)

Exam item: Return the recorded GI50 value; entry: Cc1cc(NC(=O)NC(=O)c2ccccc2NC(=O)C(C)N)ccc1Oc1ncc(Br)cn1 (centres undefined)
Marked response: 0.111 µM (active)

Exam item: Return the recorded GI50 value; entry: "NC1(CCCCCCCCCCC(=O)O)CNCCNCCNCCNC1"
Marked response: 22.7 µM (inactive)

Exam item: Return the recorded GI50 value; entry: COc1ccc(-c2coc3cc(OC)cc(O)c3c2=O)cc1 [4',7-DIMETHOXY-5-HYDROXYGENISTEIN]
Marked response: > 100 µM (inactive)

Exam item: Return the recorded GI50 value; entry: "C=C(C)C(=O)/N=C(\N)NC#N"
Marked response: 28.1 µM (inactive)

Exam item: Return the recorded GI50 value; entry: "O=C(O)COCC(=O)N(CCOCCN(Cc1ccccc1)C(=O)COCC(=O)O)Cc1ccccc1"
Marked response: > 100 µM (inactive)

Exam item: Return the recorded GI50 value; entry: "CCOC(=O)NC(=O)c1cn(CCN2CCN(C(=O)CNC(=O)CNC(=O)Cn3cc(C(=O)NC(=O)OCC)c(=O)[nH]c3=O)CC2)c(=O)[nH]c1=O"
Marked response: > 100 µM (inactive)

Exam item: Return the recorded GI50 value; entry: "CN(C)CCNC(=O)c1cc([N+](=O)[O-])cn1C"
Marked response: > 100 µM (inactive)

Exam item: Return the recorded GI50 value; entry: O=C(CC1C(=O)Nc2ccccc2S1(=O)=O)Nc1cc(Cl)ccc1Cl (centres undefined)
Marked response: 7.16 µM (inactive)

Exam item: Return the recorded GI50 value; entry: "O=C(/C=C/c1cccc2ccccc12)c1ccccc1"
Marked response: 2.9 µM (inactive)

Exam item: Return the recorded GI50 value; entry: "O=C(O)/C=C/C(=O)N1C/C(=C\c2ccccc2)C(=O)/C(=C/c2ccccc2)C1"
Marked response: 3.72 µM (inactive)

Exam item: Return the recorded GI50 value; entry: "O=C(O)COc1ccc(C(=O)/C(SS/C(C(=O)c2ccc(OCC(=O)O)c(Cl)c2Cl)=C2\C=C(c3ccc(F)cc3)SS2)=C2/C=C(c3ccc(F)cc3)SS2)c(Cl)c1Cl"
Marked response: 3.76 µM (inactive)
